Provenance of the data: patent EP4806890A1

// reported log10(Equilibrium solubility) per item
# PROTOCOL_TEXT: Solubility determination (equilibrium solubility, 24 hrs stirring at room temperature, HPLC)
# Assay type: physicochemical
# RUN_CONDITIONS: FaSSIF; target concentration 2000 µg/mL; 24 hrs
Where a name gives a salt, the structure may show the parent alone.
// do not treat as linear: log10 of Equilibrium solubility, unit µg/mL

Would you please look over these solved cases?
{"MOLECULE": "Cc1c(NC(=O)c2cc(C3CC3)c(CN3CCCC[C@H]3C(=O)O)cn2)cccc1-c1cccc(NC(=O)c2cc(C3CC3)c(CN3CCCC[C@H]3C(=O)O)cn2)c1C [crystalline form B of disodium salt anhydrate]", "log10(Equilibrium solubility)": 2.68}
{"MOLECULE": "Cc1c(NC(=O)c2cc(C3CC3)c(CN3CCCC[C@H]3C(=O)O)cn2)cccc1-c1cccc(NC(=O)c2cc(C3CC3)c(CN3CCCC[C@H]3C(=O)O)cn2)c1C [free-form crystalline form F]", "log10(Equilibrium solubility)": 2.49}
{"MOLECULE": "Cc1c(NC(=O)c2cc(C3CC3)c(CN3CCCC[C@H]3C(=O)O)cn2)cccc1-c1cccc(NC(=O)c2cc(C3CC3)c(CN3CCCC[C@H]3C(=O)O)cn2)c1C [crystalline form A of disodium salt hydrate]", "log10(Equilibrium solubility)": 2.48}
{"MOLECULE": "Cc1c(NC(=O)c2cc(C3CC3)c(CN3CCCC[C@H]3C(=O)O)cn2)cccc1-c1cccc(NC(=O)c2cc(C3CC3)c(CN3CCCC[C@H]3C(=O)O)cn2)c1C [free-form crystalline form C]", "log10(Equilibrium solubility)": 0.51}

Turning now to a further molecule:
[Q] Looking for the measured log10(Equilibrium solubility) of Cc1c(NC(=O)c2cc(C3CC3)c(CN3CCCC[C@H]3C(=O)O)cn2)cccc1-c1cccc(NC(=O)c2cc(C3CC3)c(CN3CCCC[C@H]3C(=O)O)cn2)c1C [free-form crystalline form D] , can you help?
[A] 1.89

###

// reported Hygroscopic weight increase (%) per item
# PROTOCOL_TEXT: Hygroscopic behavior test by dynamic vapor sorption (DVS)
# Type: physicochemical
# RUN_CONDITIONS: Relative humidity 70.0 % at 25 °C
Counter-ions that a name gives are not always drawn.

{"COMPOUND": "Cc1c(NC(=O)c2cc(C3CC3)c(CN3CCCC[C@H]3C(=O)O)cn2)cccc1-c1cccc(NC(=O)c2cc(C3CC3)c(CN3CCCC[C@H]3C(=O)O)cn2)c1C [free-form crystalline form C]", "METRIC": "Hygroscopic weight increase (%)", "VALUE": "1.75%"}
{"COMPOUND": "Cc1c(NC(=O)c2cc(C3CC3)c(CN3CCCC[C@H]3C(=O)O)cn2)cccc1-c1cccc(NC(=O)c2cc(C3CC3)c(CN3CCCC[C@H]3C(=O)O)cn2)c1C [free-form crystalline form F]", "METRIC": "Hygroscopic weight increase (%)", "VALUE": "2.04%"}
{"COMPOUND": "Cc1c(NC(=O)c2cc(C3CC3)c(CN3CCCC[C@H]3C(=O)O)cn2)cccc1-c1cccc(NC(=O)c2cc(C3CC3)c(CN3CCCC[C@H]3C(=O)O)cn2)c1C [free-form crystalline form D]", "METRIC": "Hygroscopic weight increase (%)", "VALUE": "3.25%"}

[Q] Looking for the measured Hygroscopic weight increase (%) of Cc1c(NC(=O)c2cc(C3CC3)c(CN3CCCC[C@H]3C(=O)O)cn2)cccc1-c1cccc(NC(=O)c2cc(C3CC3)c(CN3CCCC[C@H]3C(=O)O)cn2)c1C [crystalline form A of disodium salt hydrate] , can you help?
[A] 13.25%
